Assay: Cytotoxicity against Vero SC16 cells
Format: cell-based
Settings: chlorocebus sabaeus
parameter.measured: CC50 (µM)
# unit: µM | format: bare number

q: Given the compound Fc1ccc(-c2nn3c(NC4CCCC4)cccc3c2-c2cc[nH]n2)cc1 , what is its reported CC50?
a: 14

q: Further, for Nc1nccc(-c2c(-c3ccc(F)cc3)nn3c(NC4CCCC4)cccc23)n1 ?
a: 46

q: Repeat for the following compound: Fc1ccc(-c2nn3c(NC4CCCC4)cccc3c2-c2ccc3[nH]ccc3c2)cc1
a: 20

---

Kindly supply the reported CC50 values for the records listed here.
Test: Cytotoxicity against Vero SC16 cells
Type: cell-based
Conditions: chlorocebus sabaeus
Write the value in µM as a bare number.

q: Would you mind telling me what CC50 value was observed for Fc1ccc(-c2nn3c(NC4CCCC4)cccc3c2-c2c[nH]c(NC3CCCC3)n2)cc1 ?
a: 40

q: # repeat for NNc1cc(-c2c(-c3ccc(F)cc3)nn3c(NC4CCCC4)cccc23)ccn1
a: 40

q: What do we get for Fc1ccc(-c2nn3c(NC4CCCC4)cccc3c2-c2cn[nH]c2)cc1 ?
a: 10

q: Could you do the same for Nc1n[nH]cc1-c1c(-c2ccc(F)cc2)nn2c(NC3CCCC3)cccc12 , please?
a: 20

---

Test: Therapeutic index, ratio of CC50 for Vero SC16 cells to EC50 for HSV1
Assay type: cell-based
Conditions: monkey, read-out: Ratio CC50/EC50
parameter.measured: selectivity ratio
Give your answer as a number; write no unit.

q: Find the recorded selectivity ratio belonging to Fc1ccc(-c2nn3c(NC4CCCC4)cccc3c2-c2c[nH]c(NC3CCCC3)n2)cc1 and report it.
a: 5

q: Param item: Nc1nccc(-c2c(-c3ccc(F)cc3)nn3c(NC4CCCC4)cccc23)n1
a: 11

---

Consider the following molecules; for each one, report its selectivity ratio.
Assay: Therapeutic index, ratio of CC50 for Vero SC16 cells to EC50 for HSV1
Assay type: cell-based
Settings: monkey, read-out: Ratio CC50/EC50
Hey, just send me the number, nothing else.

q: Please look up its selectivity ratio: Fc1ccc(-c2nn3c(NC4CCCC4)cccc3c2-c2cc[nH]n2)cc1
a: 6

q: Now consider Fc1ccc(-c2nn3c(NC4CCCC4)cccc3c2-c2ccc3[nH]ccc3c2)cc1 .
a: 5

q: Next record, please: Fc1ccc(-c2nn3c(NC4CCCC4)cccc3c2-c2cn[nH]c2)cc1
a: 2

q: Same question for NNc1cc(-c2c(-c3ccc(F)cc3)nn3c(NC4CCCC4)cccc23)ccn1 please.
a: 7

q: Item: Nc1n[nH]cc1-c1c(-c2ccc(F)cc2)nn2c(NC3CCCC3)cccc12
a: 4

---

Assay: Therapeutic index, ratio of CC50 for Vero SC16 cells to EC50 for HSV1
Assay type: cell-based
Settings: monkey, read-out: Ratio CC50/EC50
For each of the molecules below, state its selectivity ratio.

q: Consider the molecule shown here: Fc1ccc(-c2nn3c(NC4CCCC4)cccc3c2-c2cc(NC3CCCC3)ncn2)cc1 What is its recorded selectivity ratio?
a: > 46

q: Please give the result for Fc1ccc(-c2nn3c(NC4CCCC4)cccc3c2-c2cccnc2)cc1 too.
a: > 11

q: Entry to check: Fc1ccc(-c2nn3c(NC4CCCC4)cccc3c2-c2ccnc(NC3CCCC3)c2)cc1
a: > 108

Measured values drawn from ChEMBL document CHEMBL1139190 for this set.
